Target: Fyn (Homo sapiens)
Sequence (P06241 whole entry): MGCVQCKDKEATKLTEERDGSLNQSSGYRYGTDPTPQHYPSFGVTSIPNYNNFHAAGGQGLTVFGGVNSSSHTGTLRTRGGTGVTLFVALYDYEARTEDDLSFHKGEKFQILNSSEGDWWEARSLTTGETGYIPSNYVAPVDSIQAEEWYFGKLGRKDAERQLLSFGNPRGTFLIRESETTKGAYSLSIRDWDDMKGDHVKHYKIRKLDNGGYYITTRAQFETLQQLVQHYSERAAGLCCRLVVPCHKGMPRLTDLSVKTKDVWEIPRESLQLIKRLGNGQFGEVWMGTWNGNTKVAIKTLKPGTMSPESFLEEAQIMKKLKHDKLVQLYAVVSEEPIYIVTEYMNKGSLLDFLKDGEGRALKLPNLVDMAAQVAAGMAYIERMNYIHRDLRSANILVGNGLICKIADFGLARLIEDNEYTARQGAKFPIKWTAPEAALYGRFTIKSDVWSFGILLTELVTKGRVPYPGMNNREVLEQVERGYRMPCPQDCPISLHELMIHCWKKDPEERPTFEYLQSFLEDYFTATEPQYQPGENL
Experiment: Radiometric kinase IC50 assay
Type: biochemical
pIC50: −log10 of the molar value.
PROPERTY LABEL: pIC50

• Cc1ccc(NC(=O)c2ccc(C)c(C(F)(F)F)c2)cc1C#Cc1nn(C2CCC(O)CC2)c2ncnc(N)c12 (stereo not shown) [LY‐1816] = 8.22

---

Test system: Aspc‐1
Test: MTT antiviability assay
Assay type: cell-based
Details: Homo sapiens, ASPC1, 72 h
PROPERTY LABEL: IC50 (nM)

- Cc1ccc(NC(=O)c2ccc(C)c(C(F)(F)F)c2)cc1C#Cc1nn(C2CCC(O)CC2)c2ncnc(N)c12 (stereo not shown): 54

---

System: MDA‐MB‐436
Experiment: MTT antiviability assay
Type: cell-based
Settings: Homo sapiens, MDA-MB-436, 72 h
PROPERTY LABEL: IC50

• Cc1ccc(NC(=O)c2ccc(C)c(C(F)(F)F)c2)cc1C#Cc1nn(C2CCC(O)CC2)c2ncnc(N)c12 (stereo not shown) [LY‐1816] = > 10 µM

---

Biological target: Lyn (Homo sapiens)
Sequence (P07948 whole entry): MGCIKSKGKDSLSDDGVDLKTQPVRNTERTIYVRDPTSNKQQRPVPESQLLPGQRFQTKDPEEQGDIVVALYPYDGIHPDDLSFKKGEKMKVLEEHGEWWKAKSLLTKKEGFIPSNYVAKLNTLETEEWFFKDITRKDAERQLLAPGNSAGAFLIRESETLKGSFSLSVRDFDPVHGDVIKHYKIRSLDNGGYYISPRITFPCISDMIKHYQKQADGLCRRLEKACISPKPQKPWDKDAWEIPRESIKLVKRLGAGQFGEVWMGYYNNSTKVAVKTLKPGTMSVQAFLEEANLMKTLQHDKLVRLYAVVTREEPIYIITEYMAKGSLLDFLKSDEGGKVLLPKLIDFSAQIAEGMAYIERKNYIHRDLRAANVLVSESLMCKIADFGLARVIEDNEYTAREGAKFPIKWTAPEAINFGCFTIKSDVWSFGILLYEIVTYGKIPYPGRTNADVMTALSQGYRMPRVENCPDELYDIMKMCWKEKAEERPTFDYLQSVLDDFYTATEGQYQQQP
pIC50: −log10 of the molar value.
PROPERTY LABEL: pIC50

* Cc1ccc(NC(=O)c2ccc(C)c(C(F)(F)F)c2)cc1C#Cc1nn(C2CCC(O)CC2)c2ncnc(N)c12 (stereo not shown) [LY‐1816] | 8.40

---

Tested on: Bxpc‐3
Assay: MTT antiviability assay
Assay type: cell-based
Settings: Homo sapiens, BXPC-3, 72 h
PROPERTY LABEL: IC50

- Cc1ccc(NC(=O)c2ccc(C)c(C(F)(F)F)c2)cc1C#Cc1nn(C2CCC(O)CC2)c2ncnc(N)c12 (stereo not shown): 58 nM

---

Target: 205 other kinases
Test: Radiometric kinase assay, remaining panel
Conditions: 205 other kinases of the panel; did not show activity
pIC50: −log10 of the molar value.
PROPERTY LABEL: pIC50

- Cc1ccc(NC(=O)c2ccc(C)c(C(F)(F)F)c2)cc1C#Cc1nn(C2CCC(O)CC2)c2ncnc(N)c12 (stereo not shown): < 5.00

---

Target: Yes (Homo sapiens)
Sequence (P07947 whole entry): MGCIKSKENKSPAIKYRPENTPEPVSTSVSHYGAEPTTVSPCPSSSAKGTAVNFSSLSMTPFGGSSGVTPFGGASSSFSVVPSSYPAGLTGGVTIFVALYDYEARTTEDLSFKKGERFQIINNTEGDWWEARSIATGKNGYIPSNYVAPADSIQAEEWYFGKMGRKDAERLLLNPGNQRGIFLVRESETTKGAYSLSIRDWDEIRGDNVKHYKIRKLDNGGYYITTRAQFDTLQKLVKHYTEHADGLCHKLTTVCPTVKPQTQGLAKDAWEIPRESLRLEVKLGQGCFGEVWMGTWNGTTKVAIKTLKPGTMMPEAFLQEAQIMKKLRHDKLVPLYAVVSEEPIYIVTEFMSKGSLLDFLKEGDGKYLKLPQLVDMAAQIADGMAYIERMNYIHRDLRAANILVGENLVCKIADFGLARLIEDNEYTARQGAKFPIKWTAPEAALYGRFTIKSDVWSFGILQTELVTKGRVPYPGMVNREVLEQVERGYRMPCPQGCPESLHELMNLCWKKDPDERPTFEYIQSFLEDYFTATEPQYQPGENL
pIC50: −log10 of the molar value.
PROPERTY LABEL: pIC50

• Cc1ccc(NC(=O)c2ccc(C)c(C(F)(F)F)c2)cc1C#Cc1nn(C2CCC(O)CC2)c2ncnc(N)c12 (stereo not shown) = 9.00

---

Tested on: COLO‐205
Assay: MTT antiviability assay
Format: cell-based
Conditions: Homo sapiens, COLO 205, 72 h
PROPERTY LABEL: IC50 (nM)

• Cc1ccc(NC(=O)c2ccc(C)c(C(F)(F)F)c2)cc1C#Cc1nn(C2CCC(O)CC2)c2ncnc(N)c12 (stereo not shown) = 17
